# Target: T1, human serum albumin (human, UniProt P02768 25-609)
# T1 construct: mature; Bought purified serum albumin; also called HSA; Human albumin
# Test description: SPR, Fab captured; albumin taken as HSA;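 also: antibody held on a capture surface, albumin injected for 3 min association then dissociation followed, signals corrected using a blank reference flow cell and buffer-only injections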
Measurement kind: Kd (nM)
# output: bare number, implied unit nM

Study these solved cases before continuing.
CA645 gL27gH5 Fab (Fab, V domains shown, Fab: human gamma1 CH1, human kappa (Km3); Kabat numbering) VH: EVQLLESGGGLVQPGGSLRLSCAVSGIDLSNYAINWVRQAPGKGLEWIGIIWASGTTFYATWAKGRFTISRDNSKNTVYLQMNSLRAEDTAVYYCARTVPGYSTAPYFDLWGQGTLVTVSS VL: DIQMTQSPSSVSASVGDRVTITCQSSPSVWSNYLSWYQQKPGKAPKLLIYEASKLTSGVPSRFSGSGSGTDFTLTISSLQPEDFATYYCGGGYSSISDTTFGGGTKVEIK | 9.44
CA645 gL4gH44 Fab (Fab, V domains shown, Fab: human gamma1 CH1, human kappa (Km3); Kabat numbering) VH: EVQLLESGGGLVQPGGSLRLSCAVSGIDLSNYAINWVRQAPGKGLEWIGIIWASGTTFYATWAKGRFTISRDNSKNTVYLQMNSLRAEDTAVYYCARTVPLYSTAPYFDLWGQGTLVTVSS VL: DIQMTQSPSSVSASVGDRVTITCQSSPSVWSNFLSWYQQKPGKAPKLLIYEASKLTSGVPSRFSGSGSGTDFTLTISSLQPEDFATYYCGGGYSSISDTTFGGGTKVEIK | 4.22

Incoming: Given CA645 gL4gH29 Fab (Fab, V domains shown, Fab: human gamma1 CH1, human kappa (Km3); Kabat numbering) VH: EVQLLESGGGLVQPGGSLRLSCAVSGIDLSNYAINWVRQAPGKGLEWIGIIWSSGTTFYATWAKGRFTISRDNSKNTVYLQMNSLRAEDTAVYYCARTVPGYSTAPYFDLWGQGTLVTVSS VL: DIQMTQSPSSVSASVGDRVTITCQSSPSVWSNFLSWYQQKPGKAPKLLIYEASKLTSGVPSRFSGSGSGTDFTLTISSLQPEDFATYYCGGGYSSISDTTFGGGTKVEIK , state its recorded Kd.
Outgoing: 7.97

Incoming: Given CA645 gL14gH5 Fab (Fab, V domains shown, Fab: human gamma1 CH1, human kappa (Km3); Kabat numbering) VH: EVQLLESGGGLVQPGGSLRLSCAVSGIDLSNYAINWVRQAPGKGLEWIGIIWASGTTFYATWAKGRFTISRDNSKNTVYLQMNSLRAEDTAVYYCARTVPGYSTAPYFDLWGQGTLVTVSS VL: DIQMTQSPSSVSASVGDRVTITCQSSPLVWSNFLSWYQQKPGKAPKLLIYEASKLTSGVPSRFSGSGSGTDFTLTISSLQPEDFATYYCGGGYSSISDTTFGGGTKVEIK , state its recorded Kd.
Outgoing: 1.51

Incoming: Given CA645 gL4gH27 Fab (Fab, V domains shown, Fab: human gamma1 CH1, human kappa (Km3); Kabat numbering) VH: EVQLLESGGGLVQPGGSLRLSCAVSGIDLSNYAINWVRQAPGKGLEWIGIIWGSGTTFYATWAKGRFTISRDNSKNTVYLQMNSLRAEDTAVYYCARTVPGYSTAPYFDLWGQGTLVTVSS VL: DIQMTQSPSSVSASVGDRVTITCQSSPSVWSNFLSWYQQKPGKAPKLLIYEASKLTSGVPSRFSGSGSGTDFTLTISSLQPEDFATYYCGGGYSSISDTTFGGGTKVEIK , state its recorded Kd.
Outgoing: 1.73
